Data origin, for the record: the supplement of paper PMC10567573

Entries and their protein stability index values follow.
B1: ZNF511 (parent)
chain: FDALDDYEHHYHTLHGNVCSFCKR

# Variants of: B1
# procedureDetails: protein stability index of a GFP-peptide fusion (GPS, HEK-293T) (PSI 1-6); higher = more stable;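 note: lentivirally expressed fusions sorted by FACS into six bins by GFP to DsRed ratio, PSI derived from sequencing read proportions per bin multiplied by bin number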
# recordedConditions: c terminus: a fixed tail appended
recordedEndpoint: protein stability index

[[record]]
variantname = "L14E"
resultvalue = 4.48

[[record]]
variantname = "F21S"
resultvalue = 3.91

[[record]]
variantname = "S20K"
resultvalue = 3.76

[[record]]
variantname = "N17V"
resultvalue = 3.67

[[record]]
variantname = "L4I"
resultvalue = 3.56

[[record]]
variantname = "F21T"
resultvalue = 4.28

[[record]]
variantname = "C22Y"
resultvalue = 2.39

[[record]]
variantname = "H15S"
resultvalue = 4.13

[[record]]
variantname = "D5P"
resultvalue = 4.11

[[record]]
variantname = "H10E"
resultvalue = 3.74

[[record]]
variantname = "Y11A"
resultvalue = 4.39

[[record]]
variantname = "L4C"
resultvalue = 3.94

[[record]]
variantname = "H15G"
resultvalue = 3.92

[[record]]
variantname = "E8R"
resultvalue = 3.55

[[record]]
variantname = "L4D"
resultvalue = 4.2

[[record]]
variantname = "H10Q"
resultvalue = 3.48

[[record]]
variantname = "T13S"
resultvalue = 3.54

[[record]]
variantname = "E8K"
resultvalue = 3.05

[[record]]
variantname = "V18T"
resultvalue = 3.76

[[record]]
variantname = "S20Q"
resultvalue = 3.85

[[record]]
variantname = "C22Q"
resultvalue = 3.15

[[record]]
variantname = "Y7N"
resultvalue = 4.25

[[record]]
variantname = "F1E"
resultvalue = 4.64

[[record]]
variantname = "G16D"
resultvalue = 3.87

[[record]]
variantname = "C22L"
resultvalue = 2.11

[[record]]
variantname = "C19W"
resultvalue = 1.92

[[record]]
variantname = "H9I"
resultvalue = 3.39

[[record]]
variantname = "H12Y"
resultvalue = 2.48

[[record]]
variantname = "L14M"
resultvalue = 3.99

[[record]]
variantname = "L4V"
resultvalue = 3.75

[[record]]
variantname = "T13L"
resultvalue = 3.24

[[record]]
variantname = "T13I"
resultvalue = 3.19

[[record]]
variantname = "L4N"
resultvalue = 4.51

[[record]]
variantname = "K23C"
resultvalue = 3.25

[[record]]
variantname = "N17A"
resultvalue = 3.55

[[record]]
variantname = "H12K"
resultvalue = 2.58

[[record]]
variantname = "D2E"
resultvalue = 4.27

[[record]]
variantname = "S20R"
resultvalue = 3.27

[[record]]
variantname = "Y7Q"
resultvalue = 4.25

[[record]]
variantname = "F21G"
resultvalue = 4.35

[[record]]
variantname = "V18N"
resultvalue = 3.89

[[record]]
variantname = "D5R"
resultvalue = 3.5

[[record]]
variantname = "D2A"
resultvalue = 3.4

[[record]]
variantname = "K23T"
resultvalue = 3.25

[[record]]
variantname = "V18P"
resultvalue = 4.49

[[record]]
variantname = "N17I"
resultvalue = 3.25

